Recorded viability, T/C, one value per entry.
Tested on: 379773-124-R-J2-PDC complex spheroids, viability % test/control
test_details: Anticancer human tumor 379773-124-R-J2-PDC patient-derived endometrial carcinoma cell line growth inhibition [CLK]
experimental_setup: second compound 0.316 µM; first compound 0.000949 µM; hits give low values
measured_endpoint: viability, T/C (%)

[[record]]
molecule = "C=CC(=O)Nc1cc(Nc2nccc(-c3cn(C)c4ccccc34)n2)c(OC)cc1N(C)CCN(C)C + CN1CCN(c2cc(C(=O)Nc3cc4cc(-c5cnn(C)c5)ccc4cn3)ccn2)CC1"
tested_on = "379773-124-R-J2-PDC complex spheroids, viability % test/control"
observed_value = 20.2

[[record]]
molecule = "C=CC(=O)Nc1cc(Nc2nccc(-c3cn(C)c4ccccc34)n2)c(OC)cc1N(C)CCN(C)C + CNC(=O)c1ccc(Nc2nc(OC3CCCC3)c3c(-c4ccc5nc(C)oc5c4)c[nH]c3n2)c(OC)c1"
tested_on = "379773-124-R-J2-PDC complex spheroids, viability % test/control"
observed_value = 44.7

[[record]]
molecule = "CC(C)CC(NC(=O)C(Cc1ccccc1)NC(=O)c1cnccn1)B(O)O (centres undefined) + CNC(=O)c1ccc(Nc2nc(OC3CCCC3)c3c(-c4ccc5nc(C)oc5c4)c[nH]c3n2)c(OC)c1"
tested_on = "379773-124-R-J2-PDC complex spheroids, viability % test/control"
observed_value = 42.3

[[record]]
molecule = "CC(C)CC(NC(=O)C(Cc1ccccc1)NC(=O)c1cnccn1)B(O)O (centres undefined) + CN1CCN(c2cc(C(=O)Nc3cc4cc(-c5cnn(C)c5)ccc4cn3)ccn2)CC1"
tested_on = "379773-124-R-J2-PDC complex spheroids, viability % test/control"
observed_value = 20.7


====

Recorded viability, T/C, one value per entry.
System: 379773-124-R-J2-PDC complex spheroids, viability % test/control
test_details: Anticancer human tumor 379773-124-R-J2-PDC cell line growth inhibition [CLK];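 also: compound exposure lasted seven days before the viability readout; 100% = DMSO vehicle control wells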
experimental_setup: second compound 0.0316 µM; first compound 3.16 µM; hits give low values
measured_endpoint: viability, T/C (%)

[[record]]
molecule = "O=C(c1cc(Cc2n[nH]c(=O)c3ccccc23)ccc1F)N1CCN(C(=O)C2CC2)CC1 + CN1CCN(c2cc(C(=O)Nc3cc4cc(-c5cnn(C)c5)ccc4cn3)ccn2)CC1"
observed_value = 78.6

[[record]]
molecule = "C=C(F)C(=O)N1CCN(c2nc(OCC3CCCN3C)nc3c2CCN(c2cccc4cccc(Cl)c24)C3)CC1CC#N (stereo not drawn) + CNC(=O)c1ccc(Nc2nc(OC3CCCC3)c3c(-c4ccc5nc(C)oc5c4)c[nH]c3n2)c(OC)c1"
observed_value = 36.7

[[record]]
molecule = "Nc1ccn(C2OC(CO)C(O)C2(F)F)c(=O)n1 (stereo not drawn) + CN1CCN(c2cc(C(=O)Nc3cc4cc(-c5cnn(C)c5)ccc4cn3)ccn2)CC1"
observed_value = 6.59


====

System: 379773-124-R-J2-PDC complex spheroids, viability % test/control
test_details: Anticancer human tumor 379773-124-R-J2-PDC cell line growth inhibition [CLK]; active = viability on the fitted dose curve at most 10% of control; inactive = the rest;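 also: compound exposure lasted seven days before the viability readout; 100% = DMSO vehicle control wells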
experimental_setup: second compound 1 µM; first compound 10 µM
Outcomes: active, inactive

[[record]]
compound = "COc1ccc([C@@H](O)c2cc(-c3ncnc4cc(N5CCOCC5)ccc34)c(F)cc2Cl)nn1 + CNC(=O)c1ccc(Nc2nc(OC3CCCC3)c3c(-c4ccc5nc(C)oc5c4)c[nH]c3n2)c(OC)c1"
classification = "active"

[[record]]
compound = "C=C(F)C(=O)N1CCN(c2nc(OCC3CCCN3C)nc3c2CCN(c2cccc4cccc(Cl)c24)C3)CC1CC#N (stereo not given) + CNC(=O)c1ccc(Nc2nc(OC3CCCC3)c3c(-c4ccc5nc(C)oc5c4)c[nH]c3n2)c(OC)c1"
classification = "active"

[[record]]
compound = "CCCS(=O)(=O)Nc1ccc(F)c(C(=O)c2c[nH]c3ncc(-c4ccc(Cl)cc4)cc23)c1F + CNC(=O)c1ccc(Nc2nc(OC3CCCC3)c3c(-c4ccc5nc(C)oc5c4)c[nH]c3n2)c(OC)c1"
classification = "inactive"

[[record]]
compound = "C=C(F)C(=O)N1CCN(c2nc(OCC3CCCN3C)nc3c2CCN(c2cccc4cccc(Cl)c24)C3)CC1CC#N (stereo not given) + CN1CCN(c2cc(C(=O)Nc3cc4cc(-c5cnn(C)c5)ccc4cn3)ccn2)CC1"
classification = "active"

[[record]]
compound = "O=C(c1cc(Cc2n[nH]c(=O)c3ccccc23)ccc1F)N1CCN(C(=O)C2CC2)CC1 + CN1CCN(c2cc(C(=O)Nc3cc4cc(-c5cnn(C)c5)ccc4cn3)ccn2)CC1"
classification = "active"

[[record]]
compound = "CC1COCCN1c1cc(C2(S(C)(=N)=O)CC2)nc(-c2ccnc3[nH]ccc23)n1 (stereo not given) + CNC(=O)c1ccc(Nc2nc(OC3CCCC3)c3c(-c4ccc5nc(C)oc5c4)c[nH]c3n2)c(OC)c1"
classification = "active"

[[record]]
compound = "CCCS(=O)(=O)Nc1ccc(F)c(C(=O)c2c[nH]c3ncc(-c4ccc(Cl)cc4)cc23)c1F + CN1CCN(c2cc(C(=O)Nc3cc4cc(-c5cnn(C)c5)ccc4cn3)ccn2)CC1"
classification = "active"

[[record]]
compound = "Nc1ccccc1NC(=O)c1ccc(CNC(=O)OCc2cccnc2)cc1 + CNC(=O)c1ccc(Nc2nc(OC3CCCC3)c3c(-c4ccc5nc(C)oc5c4)c[nH]c3n2)c(OC)c1"
classification = "active"

[[record]]
compound = "COc1cccc2c1C(=O)c1c(O)c3c(c(O)c1C2=O)CC(O)(C(=O)CO)CC3OC1CC(N)C(O)C(C)O1 (stereo not given) + CNC(=O)c1ccc(Nc2nc(OC3CCCC3)c3c(-c4ccc5nc(C)oc5c4)c[nH]c3n2)c(OC)c1"
classification = "active"

[[record]]
compound = "CC1(C)CCC(CN2CCN(c3ccc(C(=O)NS(=O)(=O)c4ccc(NCC5CCOCC5)c([N+](=O)[O-])c4)c(Oc4cnc5[nH]ccc5c4)c3)CC2)=C(c2ccc(Cl)cc2)C1 + CNC(=O)c1ccc(Nc2nc(OC3CCCC3)c3c(-c4ccc5nc(C)oc5c4)c[nH]c3n2)c(OC)c1"
classification = "inactive"

